Hey, just so you know, these numbers are from paper PMC9635925.

TEST TARGET: MRGPRX2-MUT (MRGPRX2 N62S mutation) (Homo sapiens, UniProt Q96LB1, N62S)
Construct: expressed in transfected cells
Sequence (Q96LB1 whole entry N62S): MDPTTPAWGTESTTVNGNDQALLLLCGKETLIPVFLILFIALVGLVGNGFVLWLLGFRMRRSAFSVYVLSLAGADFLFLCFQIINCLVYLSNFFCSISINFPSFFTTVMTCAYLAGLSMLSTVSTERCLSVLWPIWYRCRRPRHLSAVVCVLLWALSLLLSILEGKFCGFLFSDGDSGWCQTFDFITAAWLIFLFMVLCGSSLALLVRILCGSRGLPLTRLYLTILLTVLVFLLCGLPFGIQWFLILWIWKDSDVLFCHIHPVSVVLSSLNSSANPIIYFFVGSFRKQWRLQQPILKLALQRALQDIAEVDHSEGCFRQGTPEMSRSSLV
MEASUREMENT PROTOCOL: Primary HTS, Ca2+ mobilization (fluorescence ratio, B-score) in HEK293-Gα15 cells stably expressing the MRGPRX2 N62S mutation
Assay type: cell-based
CONDITIONS: 10 μM compound, MRGPRX2-MUT (N62S) cells, Supplementary Table 1
Structures can show the parent of a compound that is named as a salt.
B-scores (MUT) values by entry
When you answer, write just the number.

{"MOLECULE": "CN(C)CCCN1c2ccccc2CCc2ccc(Cl)cc21 [Clomipramine Hydrochloride]", "VALUE MEASURED": 2.17}
{"MOLECULE": "CCC(NC(C)C)C(O)c1ccc(O)c(O)c1 (stereo not shown) [Isoetharine Mesylate]", "VALUE MEASURED": 0.60}

query: Return value of B-scores (MUT) for input CCCCC[C@H](O)/C=C/[C@H]1[C@H](O)CC(=O)[C@@H]1C/C=C\CCCC(=O)O [Dinoprostone (Prostaglandin E2)] , no commentary.
result: 17.30

query: Return value of B-scores (MUT) for input COc1ccc2c3c1O[C@H]1C[C@@H](O)C=C[C@@]31CCN(C)C2 [Galantamine Hydrobromide] , no commentary.
result: 1.33
